- procedureText: qHTS assay to test for compound auto fluorescence at 590 nm (red) in HepG2 cell free culture (AID 720684); further: on the % scale 0 is the no-effect control and ±100 the full control effect
- conditionLabel: cell-free medium autofluorescence, red 540/590 nm; series mostly up to 91.3 µM
Calls of active or inactive are those of the source. The call rests on the fitted dose curve; in most records, active means well fitted curve in the direction sought with a large enough effect in the repeat runs; inconclusive means weak or mixed curves; inactive means flat fitted curve, though single readings scatter.
measuredParameter: fluorescence, % of Rose Bengal

Worked cases, fluorescence, % of Rose Bengal given:
compound	fluorescence, % of Rose Bengal
C[C@H]1CCCC(=O)CCC/C=C/c2cc(O)cc(O)c2C(=O)O1	inactive
CCCC(C)C1(CC)C(=O)N=C(S)NC1=O (stereo not drawn)	inactive
c1cncc([C@@H]2CCCCN2)c1	inactive
CCC(=O)OC1(c2ccccc2)CCN(C)CC1	inactive
COc1cccc([C@@]2(O)CCCC[C@@H]2CN(C)C)c1	inactive
Clc1nc(Cl)nc(Nc2ccccc2Cl)n1	inactive
ClC1=C(Cl)C2(Cl)C(CBr)CC1(Cl)C2(Cl)Cl (stereo not drawn)	inactive
CCCN1CCC[C@@H]2Cc3nc(N)ncc3C[C@H]21	inactive

Prompt: State the recorded fluorescence, % of Rose Bengal for this entry: CC1NCCOC1c1ccccc1 (stereo not drawn)
Completion: inactive

Prompt: Queued: Cc1ccc(Cl)c(O)c1
Completion: inactive

Prompt: Then this compound: COP(=O)(O)OC
Completion: inactive

Prompt: One more compound: CC(C)c1ccc(O)cc1
Completion: inactive

Prompt: Also need CC(C)(N)Cc1ccc(Cl)cc1 , thanks.
Completion: inactive

Prompt: Also, ClC(Cl)(Cl)Cl please.
Completion: inactive

====

- procedureText: qHTS assay to identify small molecule agonists of the endoplasmic reticulum stress response signaling pathway (AID 1159516); further: on the % scale 0 is the no-effect control and ±100 the full control effect
- conditionLabel: ESRE-bla HeLa, ER stress beta-lactamase reporter, 5 h; series mostly up to 61 µM
Results filed as inconclusive are left out. The source made the active and inactive calls. Calls come from the whole dose curve; as a rule, active = well fitted activation curve with a large enough effect in the signal ratio in the repeat runs (not every such curve was filed as active); inconclusive = weak or mixed curves, or effect the other way; inactive = flat fitted curve, though single readings scatter; the % refers to the signal ratio.
measuredParameter: activation

Known activation results, listed for orientation:
compound	activation
CNC(=O)NC(O)C(Cl)(Cl)Cl (centres undefined)	inactive
Brc1c(Br)c(Br)c(Br)c(Br)c1Br	-0.555% [at 6.95 µM] (inactive)
CCOC(=O)NC(C)(C)Cc1ccc(Cl)cc1	inactive
CC(C)[C@]12CC(=O)[C@H](C)[C@H]1C2	inactive
CC(C)(C)C(=O)C(Cl)Cl	inactive

Prompt: Fill in the blank: the reported activation of CCc1cc(OC)c(C[C@H](C)N)cc1OC is ____.
Completion: inactive

Prompt: What do you get for O=c1[nH]c2ccccc2n1C1CCNCC1 ?
Completion: inactive

Prompt: Further, for Oc1ccc2c3c1O[C@H]1[C@@H](O)C=C[C@H]4[C@@H](C2)NCC[C@@]341 ?
Completion: inactive

====

- procedureText: qHTS assay to identify small molecule antagonists of the retinoid acid receptor (RAR) signaling pathway - cell viability counter screen (AID 1159551); further: on the % scale 0 is the no-effect control and ±100 the full control effect; nearly all actives have a fitted effect of over 35% in size
- conditionLabel: C3RL4 cells viability, ATP luminescence (CellTiter-Glo), 6 h; series mostly up to 92.4 µM
Records with an inconclusive call do not appear. Active and inactive are the calls of the source. Calls follow the shape of the dose curve; as a rule, active = well fitted cell-killing curve with a large enough effect in the repeat runs; inconclusive = weak or mixed curves, or effect the other way; inactive = flat fitted curve, though single readings scatter.
measuredParameter: activity change, negative = cytotoxicity

Would you please look over these solved cases?
molecule	activity change, negative = cytotoxicity
c1ccc2c(c1)CCNC2	inactive
O=C(NC(O)C(Cl)(Cl)Cl)NC(O)C(Cl)(Cl)Cl (configuration not stated)	inactive
CCOC(=O)C(Cl)Cc1cc(-n2nc(C)n(C(F)F)c2=O)c(F)cc1Cl (configuration not stated)	inactive
CC(Cl)(Cl)Cl	inactive
C=CCCC#N	inactive
Clc1cc2c(cc1Cl)Oc1cc(Cl)c(Cl)cc1O2	3.92% [at 0.349 µM] (inactive)

Prompt: Bench note: what activity change, negative = cytotoxicity did CCN(CCO)CCO show?
Completion: inactive

Prompt: Next record, please: CCC(=O)c1ccc(Cl)cc1
Completion: inactive
